Target: NIH3T3neu (UniProt P04626, cells depend on it, species not given)
Construct: other: serum-stimulated growth
Test: Blockade of serum-stimulated growth, SRB assay (Table 1)
Format: cell-based, mouse
Details: serum-stimulated growth; read-out: Inhibition of growth stimulation of NIH3T3neu
Test readout: GI50 (µM)

1. COCCN(C)N=Nc1ccc2ncnc(Nc3cccc(Cl)c3)c2c1 [JFC32] ... 1.65

[A] CN(CCN(C)N=Nc1ccc2ncnc(Nc3cccc(Cl)c3)c2c1)CCN(C)N=Nc1ccc2ncnc(Nc3cccc(Cl)c3)c2c1 [JCF29]
[B] CN(C)CCN(C)N=Nc1ccc2ncnc(Nc3cccc(Cl)c3)c2c1 [JFC30]
[C] CN(CCN(C)N=Nc1ccc2ncnc(Nc3cccc(Cl)c3)c2c1)N=Nc1ccc2ncnc(Nc3cccc(Cl)c3)c2c1 [JFC16]
List from greatest to least GI50. Reply format: the labels, ordered as requested. A, C, B

###

Test: Rate of decomposition by fluorescence spectroscopy (formation of amine 1)
Format: physicochemical
Conditions: excitation 279, emission 451
Recorded half-life for the following molecules
# value in h; strip the unit string

1) Clc1cccc(Nc2ncnc3ccc(N=NNCCN4CCN(CCNN=Nc5ccc6ncnc(Nc7cccc(Cl)c7)c6c5)CC4)cc23)c1 [Double-arm combi-triazene 7] ... 2

Shift focus to the following entry.
Which half-life is reported for this molecule? CN(CCNN=Nc1ccc2ncnc(Nc3cccc(Cl)c3)c2c1)CCN(C)CCNN=Nc1ccc2ncnc(Nc3cccc(Cl)c3)c2c1 [Double-arm combi-triazene 8] 2

###

Test system: MDA-MB-453 cells
Experiment: Reversibility of antiproliferative effect, SRB assay
Format: cell-based, human
Details: MDA-MB-453, SRB; read-out: IC50, growth inhibition, 120 h continuous exposure
Test readout: IC50 (nM)
# value in nM; strip the unit string

Which IC50 is reported for this molecule? C=CC(=O)Nc1ccc2ncnc(Nc3cccc(Br)c3)c2c1 [PD168393, reference compound] 1710

###

System: MDA-MB-453 cells
Assay: Reversibility of antiproliferative effect, SRB assay
Assay type: cell-based, human
Conditions: Homo sapiens, MDA-MB-453, 120 h, MDA-MB-453, SRB; read-out: IC50, growth inhibition, 120 h continuous exposure
Test readout: pIC50
When answering, recall that pIC50 equals minus log10 of the concentration in mol/L, and write that number alone.

Which pIC50 is reported for this compound? C=CC(=O)Nc1ccc2ncnc(Nc3cccc(Br)c3)c2c1 [PD168393, reference compound] 5.74

###

Recorded pIC50 for the following molecules
Target: EGFR (Homo sapiens, UniProt P00533)
Sequence (P00533 25-1210): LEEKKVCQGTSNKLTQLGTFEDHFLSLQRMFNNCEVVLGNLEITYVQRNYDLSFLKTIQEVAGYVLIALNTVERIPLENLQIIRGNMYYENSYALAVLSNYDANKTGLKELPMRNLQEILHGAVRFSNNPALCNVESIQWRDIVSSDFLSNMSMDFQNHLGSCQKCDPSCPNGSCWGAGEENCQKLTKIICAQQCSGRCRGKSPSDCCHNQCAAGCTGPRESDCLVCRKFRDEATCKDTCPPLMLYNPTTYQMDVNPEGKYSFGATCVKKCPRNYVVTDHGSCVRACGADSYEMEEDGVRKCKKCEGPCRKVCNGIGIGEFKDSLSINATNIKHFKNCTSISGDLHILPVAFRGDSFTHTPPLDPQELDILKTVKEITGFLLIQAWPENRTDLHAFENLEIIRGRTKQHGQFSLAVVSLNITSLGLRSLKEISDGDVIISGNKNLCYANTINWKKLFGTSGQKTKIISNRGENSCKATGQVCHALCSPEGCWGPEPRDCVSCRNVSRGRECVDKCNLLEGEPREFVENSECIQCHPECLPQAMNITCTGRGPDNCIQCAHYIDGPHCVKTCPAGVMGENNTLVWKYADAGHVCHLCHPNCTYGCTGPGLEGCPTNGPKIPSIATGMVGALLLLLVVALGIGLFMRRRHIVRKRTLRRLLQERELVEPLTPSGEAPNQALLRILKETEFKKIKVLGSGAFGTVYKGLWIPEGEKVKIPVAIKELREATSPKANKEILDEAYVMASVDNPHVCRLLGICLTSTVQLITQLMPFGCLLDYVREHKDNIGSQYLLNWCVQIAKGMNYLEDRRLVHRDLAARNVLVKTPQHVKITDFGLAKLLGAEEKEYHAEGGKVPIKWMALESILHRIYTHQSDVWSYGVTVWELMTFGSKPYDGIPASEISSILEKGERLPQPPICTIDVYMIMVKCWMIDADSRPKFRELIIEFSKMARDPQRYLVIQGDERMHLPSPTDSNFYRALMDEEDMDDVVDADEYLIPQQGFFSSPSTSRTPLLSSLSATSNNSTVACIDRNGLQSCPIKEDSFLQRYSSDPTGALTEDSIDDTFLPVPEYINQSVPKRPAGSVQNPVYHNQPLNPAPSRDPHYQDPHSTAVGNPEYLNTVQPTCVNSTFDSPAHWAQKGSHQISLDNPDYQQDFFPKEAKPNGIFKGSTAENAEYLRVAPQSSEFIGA
Assay: EGFR kinase assay (ELISA, PGT substrate phosphorylation)
Type: biochemical
Set-up: endogenous in cells
Conditions: 10 min exposure; read-out: IC50, EGFR inhibitory potency, purified enzyme assay
When answering, recall that pIC50 equals minus log10 of the concentration in mol/L, and write that number alone.

1) CN(CCNN=Nc1ccc2ncnc(Nc3cccc(Cl)c3)c2c1)CCN(C)CCNN=Nc1ccc2ncnc(Nc3cccc(Cl)c3)c2c1 ... 7.30
2) CN(CCNN=Nc1ccc2ncnc(Nc3cccc(Cl)c3)c2c1)CCNN=Nc1ccc2ncnc(Nc3cccc(Cl)c3)c2c1 ... 8.52
3) Clc1cccc(Nc2ncnc3ccc(N=NNCc4ccccc4CNN=Nc4ccc5ncnc(Nc6cccc(Cl)c6)c5c4)cc23)c1 ... 5.15

Shift focus to the following entry.
Which pIC50 is reported for this molecule? Clc1cccc(Nc2ncnc3ccc(N=NNCCN4CCN(CCNN=Nc5ccc6ncnc(Nc7cccc(Cl)c7)c6c5)CC4)cc23)c1 6.00

###

Recorded pIC50 for the following molecules
Test system: MDA-MB-468 cells
Assay: Reversibility of antiproliferative effect, SRB assay
Assay type: cell-based, human
Settings: Homo sapiens, MDA-MB-468, read-out: IC50, growth inhibition, 2 h exposure followed by 120 h recovery, MDA-MB-468, SRB
Protocol: In vitro growth inhibition assay: To study the effect of the compounds on growth factor stimulated-proliferation, cells were grown to 70% of confluence in 48-well plates. […] Cell growth was measured using the sulforhodamine B (SRB) assay (24). […] The resulting colored residue was dissolved in 200 μl of Tris base (10 mM), and the optical density read for each well at 450 nm using a Bio-Rad microplate reader (model 2550). […] Cell growth was measured using SRB assay as described previously.
When answering, recall that pIC50 equals minus log10 of the concentration in mol/L, and write that number alone.

1. ClCCNc1ccc2ncnc(Nc3cccc(Br)c3)c2c1 ... 5.13

Shift focus to the following entry.
Which pIC50 is reported for this molecule? ClCCNc1ccc2ncnc(Nc3cccc(Cl)c3)c2c1 5.32

###

Recorded pIC50 for the following compounds
System: LNCaPerbB2
Assay: 6 day growth inhibition assay, LNCaP panel
Details: Homo sapiens, 144 h, read-out: IC50, LNCaPerbB2 transfected cell line
When answering, recall that pIC50 equals minus log10 of the concentration in mol/L, and write that number alone.

1) CN(CCNN=Nc1ccc2ncnc(Nc3cccc(Cl)c3)c2c1)CCN(C)CCNN=Nc1ccc2ncnc(Nc3cccc(Cl)c3)c2c1 ... 5.22
2) CN(CCNN=Nc1ccc2ncnc(Nc3cccc(Cl)c3)c2c1)CCNN=Nc1ccc2ncnc(Nc3cccc(Cl)c3)c2c1 ... 4.96
3) Clc1cccc(Nc2ncnc3ccc(N=NNCc4ccccc4CNN=Nc4ccc5ncnc(Nc6cccc(Cl)c6)c5c4)cc23)c1 ... 4.74

Which pIC50 is reported for this compound? Clc1cccc(Nc2ncnc3ccc(N=NNCc4ccc(CNN=Nc5ccc6ncnc(Nc7cccc(Cl)c7)c6c5)cc4)cc23)c1 4.43

Would you mind doing Clc1cccc(Nc2ncnc3ccc(N=NNCCN4CCN(CCNN=Nc5ccc6ncnc(Nc7cccc(Cl)c7)c6c5)CC4)cc23)c1 as well? 5.05

###

Test system: DU145
Assay: Growth inhibition in androgen independent prostate cancer cell line
Settings: Homo sapiens, DU-145, 144 h, read-out: IC50, 6 day continued growth inhibition assay
Test readout: IC50 (µM)
# value in µM; strip the unit string

Examples with their reported IC50 follow.
1. Clc1cccc(Nc2ncnc3ccc(N=NNCCN4CCN(CCNN=Nc5ccc6ncnc(Nc7cccc(Cl)c7)c6c5)CC4)cc23)c1 [Double-arm combi-triazene 7] ... 1.8
2. CN(CCNN=Nc1ccc2ncnc(Nc3cccc(Cl)c3)c2c1)CCNN=Nc1ccc2ncnc(Nc3cccc(Cl)c3)c2c1 [Double-arm combi-triazene 9] ... 2.3

Which IC50 is reported for this compound? CN(CCNN=Nc1ccc2ncnc(Nc3cccc(Cl)c3)c2c1)CCN(C)CCNN=Nc1ccc2ncnc(Nc3cccc(Cl)c3)c2c1 [Double-arm combi-triazene 8] 3.2

Would you mind doing Clc1cccc(Nc2ncnc3ccc(N=NNCc4ccc(CNN=Nc5ccc6ncnc(Nc7cccc(Cl)c7)c6c5)cc4)cc23)c1 [Double-arm combi-triazene 6] as well? 35

Would you mind doing Clc1cccc(Nc2ncnc3ccc(N=NNCc4ccccc4CNN=Nc4ccc5ncnc(Nc6cccc(Cl)c6)c5c4)cc23)c1 [Double-arm combi-triazene 5] as well? 12

###

Target: UniProt P00533
Test: EGFR kinase assay (ELISA, PGT substrate phosphorylation)
Format: biochemical
Parameters: endogenous in cells
Settings: Table 1, inhibition of EGFR kinase; read-out: EGFR Binding
Test readout: IC50 (nM)

[a] CN(C)CCN(C)N=Nc1ccc2ncnc(Nc3cccc(Cl)c3)c2c1
[b] CN(CCN(C)N=Nc1ccc2ncnc(Nc3cccc(Cl)c3)c2c1)CCN(C)N=Nc1ccc2ncnc(Nc3cccc(Cl)c3)c2c1
Of a and b , which one carries the higher reported IC50? Indicate your choice by writing its label. b
(b: 36 nM, a: 14 nM)

[P] COCCN(C)N=Nc1ccc2ncnc(Nc3cccc(Cl)c3)c2c1
[Q] CN(CCOCCN(C)N=Nc1ccc2ncnc(Nc3cccc(Cl)c3)c2c1)N=Nc1ccc2ncnc(Nc3cccc(Cl)c3)c2c1
[R] CN(CCN(C)N=Nc1ccc2ncnc(Nc3cccc(Cl)c3)c2c1)N=Nc1ccc2ncnc(Nc3cccc(Cl)c3)c2c1
Put the items in order so that reported IC50 rises from first to last. Reply format: the labels, ordered as requested. Q, P, R

###

System: MDA-MB-468 cells
Experiment: Reversibility of antiproliferative effect, SRB assay
Type: cell-based, human
Conditions: Homo sapiens, MDA-MB-468, 120 h, read-out: IC50, growth inhibition, 120 h continuous exposure, MDA-MB-468, SRB
Recorded pIC50 for the following compounds
When answering, recall that pIC50 equals minus log10 of the concentration in mol/L, and write that number alone.

1) ClCCNc1ccc2ncnc(Nc3cccc(Cl)c3)c2c1 ... 6.29

Shift focus to the following entry.
Which pIC50 is reported for this compound? ClCCNc1ccc2ncnc(Nc3cccc(Br)c3)c2c1 6.44
